Assay: Restrictive medium S. cerevisiae growth inhibition, OD615, pilot screen of yeast lifespan reduction project, restrictive growth control (AID 706);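 further: modified DeaD lifespan yeast strain shifted to restrictive glucose medium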
Conditions: OD615, 48 h, at 10 µM, stronger effect = higher value
The molecules listed here are annotated with their growth inhibition.
Numeric only. Scale: %

C=CCN(C(=O)CN1CCOCC1)c1nc(C)c(-c2ccccc2)s1 | -12.9
CC(=O)Nc1ccc(S(=O)(=O)N2CCSCC2)cc1 | -27.7

Request: Give reported growth inhibition value for COc1cccc(N2CCN(C3CC(=O)N(c4ccc(Cl)cc4)C3=O)CC2)c1 (stereo not drawn)
Result: -2.62

Request: Give reported growth inhibition value for CC(=O)Nc1ccc2nc(-c3cccs3)[nH]c2c1
Result: -15.4

Request: Give reported growth inhibition value for Cc1nc2ccccc2c2oc(C(=O)NCCN3CCN(C)CC3)cc12
Result: -15.1

Request: Give reported growth inhibition value for Cc1cc(NC(=O)CSc2nnc(Cn3c(=O)sc4ccccc43)n2-c2ccccc2C)no1
Result: -2.43

Request: Give reported growth inhibition value for CCCc1cc(C(=O)Nc2cccc(C(C)=O)c2)no1
Result: 1.98

Request: Give reported growth inhibition value for O=C(NCc1cccs1)C1CCN(S(=O)(=O)c2cccc3cccnc23)CC1
Result: -6.17

Request: Give reported growth inhibition value for CCOC(=O)c1nnc2cc(-c3ccccc3)nn2c1C
Result: 16

Request: Give reported growth inhibition value for Cc1nc(C)c(C(=O)Nc2cccc(C)c2C)o1
Result: -15.8

Request: Give reported growth inhibition value for O=C(c1cc2ccccc2cc1OCC(O)CN1CCCCC1)N1CCCCC1 (stereo not drawn)
Result: 0.51

Request: Give reported growth inhibition value for O=C(NCC1CCCO1)C1CC(=O)N(c2ccc(F)c(Cl)c2)C1 (stereo not drawn)
Result: -1.83

Request: Give reported growth inhibition value for Cc1c(C(=O)NCc2ccccc2)oc2ccc(S(=O)(=O)N3CCCC3)cc12
Result: 3.53

Cited source for all entries: PubChem BioAssay
